# credit: ChEMBL document CHEMBL2040838

Property: pIC50; scope: individual molecules
# TARGET DESC: Neuraminidase (Influenza A virus)
# Sequence (B4URF0 whole entry): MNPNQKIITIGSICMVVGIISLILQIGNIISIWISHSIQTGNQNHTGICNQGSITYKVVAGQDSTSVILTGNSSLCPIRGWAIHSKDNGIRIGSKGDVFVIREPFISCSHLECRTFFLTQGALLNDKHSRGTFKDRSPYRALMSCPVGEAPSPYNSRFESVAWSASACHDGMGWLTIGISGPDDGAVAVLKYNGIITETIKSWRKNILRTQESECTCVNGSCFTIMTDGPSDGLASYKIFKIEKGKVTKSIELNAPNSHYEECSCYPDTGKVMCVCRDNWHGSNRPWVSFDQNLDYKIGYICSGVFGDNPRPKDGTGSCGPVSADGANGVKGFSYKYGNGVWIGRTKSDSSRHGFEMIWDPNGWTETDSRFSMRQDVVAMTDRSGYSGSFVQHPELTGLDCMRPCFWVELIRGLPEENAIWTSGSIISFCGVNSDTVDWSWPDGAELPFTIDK
# ASSAY DETAILS: Inhibition of Influenza A virus (A/Indonesia/5/2005(H5N1)) […] recombinant neuraminidase using 2'-(4-methylumbelliferyl)-alpha-D-N-acetylneuraminic acid as substrate after 1 hr by fluorescence assay
pIC50: −log10 of the molar value.

STRUCTURE SMILES: CC(=O)N[C@H]1[C@H]([C@H](O)[C@H](O)CO)OC(C(=O)O)=C[C@@H]1NC(=O)Nc1ccc(Cl)cc1
TARGET DESC: Neuraminidase (Influenza A virus)
PROPERTY MEASURED: pIC50
OBSERVED MEASUREMENT: < 3.00
--
STRUCTURE SMILES: CC(=O)N[C@H]1[C@H]([C@H](O)[C@H](O)CO)OC(C(=O)O)=C[C@@H]1NC(=O)Nc1ccc(F)cc1
TARGET DESC: Neuraminidase (Influenza A virus)
PROPERTY MEASURED: pIC50
OBSERVED MEASUREMENT: < 3.00

# ---- query molecule ----
Short answer on Neuraminidase (Influenza A virus) for CC(=O)N[C@H]1[C@H]([C@H](O)[C@H](O)CO)OC(C(=O)O)=C[C@@H]1NC(=O)N1CCC[C@H]1C(=O)O , pIC50: < 3.00
